TEST SYSTEM: Human mGlu3 (Homo sapiens, UniProt Q14832)
Sequence (Q14832 23-879): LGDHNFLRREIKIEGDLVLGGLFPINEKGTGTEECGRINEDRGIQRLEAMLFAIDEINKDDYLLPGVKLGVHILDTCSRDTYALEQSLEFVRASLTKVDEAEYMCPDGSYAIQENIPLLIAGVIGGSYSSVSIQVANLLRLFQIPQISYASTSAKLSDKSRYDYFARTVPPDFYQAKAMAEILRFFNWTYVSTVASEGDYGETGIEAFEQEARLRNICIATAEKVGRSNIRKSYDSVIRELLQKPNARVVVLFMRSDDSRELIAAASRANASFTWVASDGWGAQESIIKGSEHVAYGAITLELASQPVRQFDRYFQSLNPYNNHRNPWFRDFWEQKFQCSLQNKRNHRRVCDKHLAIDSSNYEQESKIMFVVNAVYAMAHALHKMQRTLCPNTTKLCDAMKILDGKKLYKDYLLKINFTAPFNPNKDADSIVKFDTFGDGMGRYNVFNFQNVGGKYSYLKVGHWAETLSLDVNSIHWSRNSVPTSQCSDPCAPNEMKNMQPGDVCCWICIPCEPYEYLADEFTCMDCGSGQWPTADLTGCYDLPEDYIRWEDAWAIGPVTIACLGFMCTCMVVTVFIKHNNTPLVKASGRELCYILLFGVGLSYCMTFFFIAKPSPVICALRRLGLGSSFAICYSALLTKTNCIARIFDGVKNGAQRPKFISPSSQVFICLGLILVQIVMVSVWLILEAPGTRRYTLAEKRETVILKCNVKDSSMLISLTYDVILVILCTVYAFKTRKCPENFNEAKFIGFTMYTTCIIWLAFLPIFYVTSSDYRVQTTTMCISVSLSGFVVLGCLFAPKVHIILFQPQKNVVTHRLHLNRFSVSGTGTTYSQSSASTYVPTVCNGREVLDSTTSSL
ASSAY INFO: mGlu receptor in vitro assay, human mGlu3
pEC50: −log10 of the molar value.
EXPERIMENTAL READOUT: pEC50

>>> df
                               smiles_input  result
0  Cc1c(OCc2cnc(-c3cncc(C(=O)O)c3)cn2)ccc(C(=O)CC(C)(C)C)c1O  < 4.52
1  CCCC(=O)c1ccc(OCCCCCOc2ccc(C(=O)O)cc2Cl)c(C)c1O  < 5.00
2  CCCC(=O)c1ccc(OCCOCCNc2cccc(C(=O)O)c2)c(C)c1O  < 5.00
3  CCCC(=O)c1ccc(OCCCCCOc2cccc(C(=O)O)c2C)c(C)c1O  < 5.00
